# procedure_text: Proxy for plastic degradation [UPLC/UHPLC]
# details: pH 9; 55 °C
Classify as follows. Reported Proxy for plastic degradation greater than or equal to 20 µM: condition met. Reported Proxy for plastic degradation below: condition not met.

Entry unnamed (protein) MSHRFRLAAAVCVAAAILVPATPAAAADPWDAPGPYATAVQIGAVNTLYYPRDIASSPRRHPVIVWGNGTGAAPLVYRDLLLYWASHGFIVSAANTPASNLGISMRLGIDALAAADADPGSIFRGKVDLAHIGASGHSQGGAAAIVVGADPRIDAILPIQPGPLADIDDVHVPALLLAGQHDSIVFPFLVKAFYNDATHIPAIYAEVRGADHFTVVGDPGPFAAPTTAWFRFQLMGDTAARAEFYGPSCGICTDTRTWSDVRRNALVP : is its Proxy for plastic degradation no less than 20 µM?
condition not met

How about unnamed (protein) MRARIAALVAVPFLGAGAFAVSSVAAGDPPAVRTVPAAAAAPVDWSKTGPHQVKVDKADAHTIYRPSDLGSGGVKNPVVIWGNGTGATPAAYDGLLRHWASHGFVVAAANTKQANNGNAMRAGLDLVTKWNTTSSSPYYGKVDVSRVASSGHSQGGAGAMNAAVDTRVDAVLPIQPGPLAAPRKFKQPTFYMAGQNDRVVWPSWVRNFYNKSGHLPAVFGVVRGATHVAPAGDGGAFRGPTTAWLSFTLRGDASARAQFAGASCGYCGASSPFSNWLRNTRFTSQNG ?
condition not met

How about unnamed (protein) MGGGGEDNVFAEPGDFDVVTEPGGRDCTIFRPEQLGDDHAVVIWGNGTGASPNTYAGLLRHYASHGFVVVAANTSNAGTGEDMLNCLDFLEGSQLASSVDFSKVGATGHSQGGGGAIMAGVDPRIATTAPIEGFTLGLGHDRDSHDQQNGPMLILSGSADRLVNPRTNHAPLFDATNVPAFWAIAQGAGHFEPVGDGGDFRGISTAWFLFQLEDDPEATTHFVGDDCFVCEDPGFDVEGVKEID ?
condition not met

How about unnamed (protein) MALVTALALVTGVGTAPAFADEIGQAPTAANITGDGSFSTSSSAIFGQSGFGGGTAYYPNTAGKYPVVAFAPGFLSDWNALNWLGPRVASWGFVVVGVNTNTPFDFPDARGDQLLAALNWAVNSAPAAVRDKADGSRRGVSGWSMGGGGTLEALAKDTTGTVKAGVPLAPWHTNKTWSKVTEPVFIIGGQNDSVAAPASHAIPFYNSLGGPKSYLERAGADHFFPTKSNGTVSRAVVSFFKRHVSADTRFTPFLCGFSGLDVSNFRSNSC ?
condition met

How about unnamed (protein) MNAPLFKLAALTLGLSLASVVLANNPGGGGGTAPDTGTGFPGVSNFSASGSFATTSGSAGASCTVFRPSTLGANNRKHPIIVWGNGTTASPNTYASLLQHWASHGFVVIAANTSNAGTGQEMLGCVDYLTTQNNRSTGTYAGKLDLNRIGAAGHSQGGGGTIMAGQDYRIKVTAPFQPYTIGLGHNSSSQSNQNGPMFLMTGSIDTIASPTLNALPVYTRANVPVFWGELSGASHFEPVGNAGDFRGPATAWFRYHLMDDASAEDTFYGSNCDLCTDRDWDVRRKGIN ?
condition not met

Measured values drawn from the PETadex activity labels (doi:10.1038/s41467-025-61599-z) for this set.
